# TARGET DESC: HIV-1 IN (Human immunodeficiency virus type 1 group M subtype B)
# Construct: pre-incubated with purified recombinant IN (at a final concentration of 200 nM); made in house
# ASSAY PROTOCOL: In vitro IN inhibition assay (3’-processing and strand transfer)
# Format: biochemical
# EXPERIMENTAL PARAMETERS: Mn2+ cofactor (7.5 mM MnCl2); read-out: Inhibition of IN catalytic activity IC50, Strand Transfer
TEST READOUT: pIC50
The read-out pIC50 is expressed as -log10 of concentration in moles per litre.

Cc1ccc(C(=O)C=C2SC(=S)N(NC(=S)C(=O)Nc3ccccc3)C2=O)cc1    4.70

[in] For O=C(Nc1cccc([N+](=O)[O-])c1)C(=S)NN1C(=O)C(=Cc2ccc([N+](=O)[O-])o2)SC1=S , what is its reported pIC50?
[out] 4.24

[in] For COc1cc(NC(=O)C(=S)NN2C(=O)/C(=C\c3ccc(O)c(C(=O)O)c3)SC2=S)cc(OC)c1OC , what is its reported pIC50?
[out] 4.21

[in] For COc1cc(NC(=O)C(=S)NN2C(=O)C(=Cc3ccc([N+](=O)[O-])o3)SC2=S)cc(OC)c1OC , what is its reported pIC50?
[out] 4.60

[in] For O=C(Nc1ccc(Cl)cc1)C(=S)NN1C(=O)C(=Cc2ccc([N+](=O)[O-])o2)SC1=S , what is its reported pIC50?
[out] 4.39

====

Listing of recorded melting point by entry.

Observe how each entry below is paired with its result.
Cc1ccc(C(=O)C=C2SC(=S)N(NC(=S)C(=O)Nc3ccccc3)C2=O)cc1    147 to 148 °C
CCN(CC)c1ccc(C=C2SC(=S)N(NC(=S)C(=O)Nc3cc(OC)c(OC)c(OC)c3)C2=O)c(O)c1    210 to 211 °C
COc1cc(NC(=O)C(=S)NN2C(=O)C(=Cc3cc(Br)cc(Br)c3O)SC2=S)cc(OC)c1OC    221 to 222 °C
CCN(CC)c1ccc(C=C2SC(=S)N(NC(=S)C(=O)Nc3ccc(O)cc3)C2=O)c(O)c1    206 to 207 °C

[in] For O=C(Nc1ccc(Cl)cc1)C(=S)NN1C(=O)C(=Cc2ccc([N+](=O)[O-])o2)SC1=S , what is its reported melting point?
[out] 159 to 160 °C

[in] For O=C(Nc1ccc(O)cc1)C(=S)NN1C(=O)C(=Cc2cc([N+](=O)[O-])ccc2O)SC1=S , what is its reported melting point?
[out] 199 to 200 °C

[in] For CCOc1cccc(C=C2SC(=S)N(NC(=S)C(=O)Nc3cc(OC)c(OC)c(OC)c3)C2=O)c1O , what is its reported melting point?
[out] 231 to 232 °C

[in] For O=C(Nc1cccc([N+](=O)[O-])c1)C(=S)NN1C(=O)C(=Cc2ccc(Cl)cc2)SC1=S , what is its reported melting point?
[out] 221 to 222 °C

[in] For C=CCc1cccc(C=C2SC(=S)N(NC(=S)C(=O)Nc3cc(OC)c(OC)c(OC)c3)C2=O)c1O , what is its reported melting point?
[out] 174 to 175 °C

====

# TARGET DESC: human apurinic/apyrimidinic endonuclease 1 (APE1) (Homo sapiens)
# Construct: His; made in house
# Sequence (P27695 whole entry): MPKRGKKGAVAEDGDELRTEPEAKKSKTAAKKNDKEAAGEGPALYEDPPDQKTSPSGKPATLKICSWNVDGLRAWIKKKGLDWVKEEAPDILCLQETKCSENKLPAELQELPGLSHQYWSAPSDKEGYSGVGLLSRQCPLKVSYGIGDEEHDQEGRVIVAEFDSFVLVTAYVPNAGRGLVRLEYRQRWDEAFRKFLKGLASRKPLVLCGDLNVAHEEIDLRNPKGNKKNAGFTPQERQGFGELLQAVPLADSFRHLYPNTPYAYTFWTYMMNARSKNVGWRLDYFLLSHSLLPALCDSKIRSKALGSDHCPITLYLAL
# ASSAY PROTOCOL: APE1 inhibition assay
# Format: biochemical
# EXPERIMENTAL PARAMETERS: read-out: Inhibition of APE1 catalytic activity IC50
# Description: All compounds were dissolved in DMSO to a final stock concentration of 10 mM and stored at −20 °C. Initial screening for IN inhibitory effect was done at 100 μM and dilutions were made in DMSO. […] APE1 inhibition assay was performed as previously described. […] The gels were dried, exposed in a PhosphorImager cassette and analyzed using a Typhoon 8610 Variable Mode Imager (Amersham Biosciences). Quantification of enzyme inhibition was done using Image Quant 5.2 software. […]
TEST READOUT: IC50

CCOc1cc(-n2cnnn2)c(OCC)cc1NC(=O)C(=S)NN1C(=O)C(=Cc2cc(OC)c(OC)c(OC)c2)SC1=S [Compound 23]    83 µM

[in] What reported IC50 corresponds to O=C(Nc1ccc(O)cc1)C(=S)NN1C(=O)C(=Cc2ccc(O)c(C(=O)O)c2)SC1=S [Compound 49] on human apurinic/apyrimidinic endonuclease 1 (APE1) (Homo sapiens)?
[out] > 100 µM

[in] What reported IC50 corresponds to COc1cc(C=C2SC(=S)N(NC(=S)C(=O)Nc3ccc(-n4cnnn4)c(C)c3)C2=O)cc(OC)c1OC [Compound 24] on human apurinic/apyrimidinic endonuclease 1 (APE1) (Homo sapiens)?
[out] > 100 µM

====

TEST READOUT: melting point

Observe how each entry below is paired with its result.
O=C(Nc1cccc([N+](=O)[O-])c1)C(=S)NN1C(=O)C(=Cc2ccc([N+](=O)[O-])o2)SC1=S    152 to 153 °C
O=C(Nc1ccccc1)C(=S)NN1C(=O)C(=Cc2c[nH]c3ccccc23)SC1=S    206 to 207 °C
O=C(Nc1cc(C(F)(F)F)cc(C(F)(F)F)c1)C(=S)NN1C(=O)C(=Cc2ccc([N+](=O)[O-])o2)SC1=S    195 to 196 °C
CCOc1cc(-n2cnnn2)c(OCC)cc1NC(=O)C(=S)NN1C(=O)C(=Cc2cc(OC)c(OC)c(OC)c2)SC1=S    158 to 159 °C

[in] For C=CCc1cccc(C=C2SC(=S)N(NC(=S)C(=O)Nc3ccc(O)cc3)C2=O)c1O , what is its reported melting point?
[out] 153 to 154 °C

[in] For COc1cc(C=C2SC(=S)N(NC(=S)C(=O)Nc3cc(OC)c(OC)c(OC)c3)C2=O)cc(OC)c1OC , what is its reported melting point?
[out] 196 to 197 °C

[in] For COc1cc(NC(=O)C(=S)NN2C(=O)C(=Cc3cc([N+](=O)[O-])ccc3O)SC2=S)cc(OC)c1OC , what is its reported melting point?
[out] 205 to 206 °C

====

Listing of recorded IC50 by entry.
# TARGET DESC: HIV-1 IN (Human immunodeficiency virus type 1 group M subtype B, UniProt P12497)
# Construct: pre-incubated with purified recombinant IN (at a final concentration of 200 nM); made in house
# ASSAY PROTOCOL: In vitro IN inhibition assay (3’-processing and strand transfer)
# Type: biochemical
# EXPERIMENTAL PARAMETERS: Mn2+ cofactor (7.5 mM MnCl2); read-out: Inhibition of IN catalytic activity IC50, Strand Transfer
Output spec: scalar in µM, unitless text.

[in] For COc1cc(NC(=O)C(=S)NN2C(=O)C(=Cc3cc(N=Nc4ccccc4)ccc3O)SC2=S)cc(OC)c1OC , what is its reported IC50?
[out] 26

[in] For COc1cc(NC(=O)C(=S)NN2C(=O)C(=Cc3cc(Br)ccc3O)SC2=S)cc(OC)c1OC , what is its reported IC50?
[out] 30

[in] For COc1cc(NC(=O)C(=S)NN2C(=O)C(=Cc3cccc([N+](=O)[O-])c3O)SC2=S)cc(OC)c1OC , what is its reported IC50?
[out] 72

[in] For O=C(Nc1cccc(C(F)(F)F)c1)C(=S)NN1C(=O)C(=Cc2ccc([N+](=O)[O-])o2)SC1=S , what is its reported IC50?
[out] 56

[in] For COc1ccc(NC(=O)C(=S)NN2C(=O)C(=Cc3ccc([N+](=O)[O-])o3)SC2=S)cc1OC , what is its reported IC50?
[out] 14

====

Listing of recorded IC50 by entry.
# TARGET DESC: HIV-1 IN (Human immunodeficiency virus type 1 group M subtype B, UniProt P12497)
# Construct: pre-incubated with purified recombinant IN (at a final concentration of 200 nM); made in house
# ASSAY PROTOCOL: In vitro IN inhibition assay (3’-processing and strand transfer)
# Type: biochemical
# EXPERIMENTAL PARAMETERS: Mn2+ cofactor (7.5 mM MnCl2); read-out: Inhibition of IN catalytic activity IC50, 3’-Processing

Observe how each entry below is paired with its result.
CCN(CC)c1ccc(C=C2SC(=S)N(NC(=S)C(=O)Nc3cc(OC)c(OC)c(OC)c3)C2=O)c(O)c1    > 100 µM
COc1cc(NC(=O)C(=S)NN2C(=O)C(=Cc3cc(Br)ccc3O)SC2=S)cc(OC)c1OC    44 µM
COc1cc(C=C2SC(=S)N(NC(=S)C(=O)Nc3cc(OC)c(OC)c(OC)c3)C2=O)cc(OC)c1OC    > 100 µM

[in] For O=C(Nc1ccc(O)cc1)C(=S)NN1C(=O)C(=Cc2cc(Cl)ccc2O)SC1=S , what is its reported IC50?
[out] > 100 µM

[in] For COc1ccc(NC(=O)C(=S)NN2C(=O)C(=Cc3ccc(Cl)cc3)SC2=S)cc1 , what is its reported IC50?
[out] 33 µM

[in] For O=C(Nc1ccc(Cl)cc1)C(=S)NN1C(=O)C(=Cc2ccc(Cl)cc2)SC1=S , what is its reported IC50?
[out] > 100 µM

[in] For COc1cc(NC(=O)C(=S)NN2C(=O)C(=Cc3cc([N+](=O)[O-])ccc3O)SC2=S)cc(OC)c1OC , what is its reported IC50?
[out] 47 µM

[in] For COc1cc(NC(=O)C(=S)NN2C(=O)C(=Cc3cc(Br)cc(Br)c3O)SC2=S)cc(OC)c1OC , what is its reported IC50?
[out] 33 µM
